Molecular target: human recombinant H-PGDS (Homo sapiens, UniProt O60760)
Sequence (O60760 whole entry): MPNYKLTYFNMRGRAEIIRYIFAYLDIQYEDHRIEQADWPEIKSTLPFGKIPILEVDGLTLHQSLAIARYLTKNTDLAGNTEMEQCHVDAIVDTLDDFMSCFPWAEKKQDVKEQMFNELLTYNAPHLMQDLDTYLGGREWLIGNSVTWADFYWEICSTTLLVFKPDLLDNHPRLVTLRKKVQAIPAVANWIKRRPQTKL
Assay: Fluorescence intensity h-PGDS TBA enzyme assay
Format: biochemical
Settings: Examples up to 622 (and 3a, 3b)
pIC50: −log10 of the molar value.
ASSAY_READOUT: pIC50

MOL | ENDPOINT_VALUE
Cn1cc(Cl)c(CN2CCC(NC(=O)c3ccc(-c4cccc(F)c4)nc3)CC2)n1 | 9.77
Cn1ccnc1-c1ccc(CN2CCC(NC(=O)c3ccc(-c4cccc(F)c4)nc3)CC2)cc1 | 9.06

1 = Cc1nc(N)cc(N2CCC(NC(=O)c3ccc(-c4cccc(F)c4)nc3)CC2)n1
2 = Cc1cc(CN2CCC(NC(=O)c3ccc(-c4cccc(F)c4)nc3)CC2)ccc1F
Query string: Of 1 and 2 , which one carries the higher reported pIC50? Give the label under which the chosen entry appears.
Result string: 1
(1: 9.40, 2: 9.20)

The values you see were collected from patent US7902373B2.
